Ref: paper PMC7043210

biological target: human CB1 receptor (Homo sapiens, UniProt P21554); construct: HA (hemagglutinin); expressed in transfected cells; host or cells: HEK 293 FlpIn cells with GIRK4 expression, stably transfected (pcDNA5/FRT + pOG44); format: cell-based
Sequence (P21554 whole entry): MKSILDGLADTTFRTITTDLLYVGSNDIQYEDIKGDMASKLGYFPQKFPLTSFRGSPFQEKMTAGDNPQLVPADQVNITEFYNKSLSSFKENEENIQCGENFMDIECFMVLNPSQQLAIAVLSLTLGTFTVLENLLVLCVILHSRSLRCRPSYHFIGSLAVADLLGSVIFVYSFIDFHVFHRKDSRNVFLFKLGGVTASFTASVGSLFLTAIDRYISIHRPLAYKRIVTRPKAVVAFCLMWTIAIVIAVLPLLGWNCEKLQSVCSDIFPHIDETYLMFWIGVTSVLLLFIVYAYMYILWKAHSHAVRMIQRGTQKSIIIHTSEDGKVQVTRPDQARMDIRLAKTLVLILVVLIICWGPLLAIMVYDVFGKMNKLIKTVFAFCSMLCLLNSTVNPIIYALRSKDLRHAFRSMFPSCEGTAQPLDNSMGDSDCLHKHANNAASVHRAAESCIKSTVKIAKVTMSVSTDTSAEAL
Endpoint label: increase in cAMP levels above that produced by FSK alone

INSERT INTO measurements (compound, assay_result) VALUES
  ('CC(C)[C@H](NC(=O)c1nn(Cc2ccc(F)cc2)c2ccccc12)C(N)=O [AB‐FUBINACA]', 'more than 30%'),
  ('CCCCCCC(C)(C)c1ccc([C@@H]2C[C@H](O)CC[C@H]2CCCO)c(O)c1 [CP55940, reference compound]', '19%'),
  ('CCCCCn1cc(C(=O)Oc2cccc3cccnc23)c2ccccc21 [PB‐22]', 'more than 30%'),
  ('CCCCCn1nc(C(=O)N[C@H](C(N)=O)C(C)C)c2ccccc21 [AB‐PINACA]', 'more than 30%');

----------
target: human CB1 receptor (Homo sapiens, UniProt P21554); construct: HA (hemagglutinin); expressed in transfected cells; host or cells: HEK 293 FlpIn cells with GIRK4 expression, stably transfected (pcDNA5/FRT + pOG44); format: cell-based
Below, each entry is listed alongside its reported G s (+PTX) pEC50.

Worked cases, answers included:
INSERT INTO measurements (structure_smiles_string, endpoint_label, assay_result) VALUES
  ('CC1(C)C(C(=O)c2cn(CCCCCF)c3ccccc23)C1(C)C', 'G s (+PTX) pEC50', '5.3 ± 0.8 (4720)'),
  ('CCCCCn1cc(C(=O)c2cccc3ccccc23)c2ccccc21', 'G s (+PTX) pEC50', '6.5 ± 0.7 (288)');

Answer with G s (+PTX) pEC50 of `COC(=O)[C@@H](NC(=O)c1cn(CCCCCF)c2ccccc12)C(C)(C)C` measured for human CB1 receptor (Homo sapiens, UniProt P21554).
7.1 ± 0.4 (85)

Answer with G s (+PTX) pEC50 of `CCCCCn1cc(C(=O)Oc2cccc3cccnc23)c2ccccc21` measured for human CB1 receptor (Homo sapiens, UniProt P21554).
7.2 ± 0.5 (69)

----------
biological target: human CB1 receptor (Homo sapiens, UniProt P21554); construct: HA (hemagglutinin); expressed in transfected cells; host or cells: HEK 293 FlpIn cells with GIRK4 expression, stably transfected (pcDNA5/FRT + pOG44); format: cell-based
Endpoint label: G i (‐PTX) E max (% FSK)
Write the answer as a number in % FSK, unit excluded.

Worked cases, answers included:
INSERT INTO results (compound, endpoint_label, assay_result) VALUES
  ('CCCCCn1cc(C(=O)Oc2cccc3cccnc23)c2ccccc21 [PB‐22]', 'G i (‐PTX) E max (% FSK)', 64),
  ('CC1(C)C(C(=O)c2cn(CCCCCF)c3ccccc23)C1(C)C [XLR‐11]', 'G i (‐PTX) E max (% FSK)', 63),
  ('COC(=O)[C@@H](NC(=O)c1cn(CCCCCF)c2ccccc12)C(C)(C)C [5F‐MDMB‐PICA]', 'G i (‐PTX) E max (% FSK)', 60);

Now look at this entry.
Check the records and state G i (‐PTX) E max (% FSK) for CC(C)[C@H](NC(=O)c1nn(Cc2ccc(F)cc2)c2ccccc12)C(N)=O [AB‐FUBINACA]
61

----------
target: human CB1 receptor (Homo sapiens, UniProt P21554); construct: HA (hemagglutinin); expressed in transfected cells; host or cells: HEK 293 FlpIn cells with GIRK4 expression, stably transfected (pcDNA5/FRT + pOG44); type: cell-based; conditions: read-out: G i (‐PTX) EC50 (converted)
Rule for this label: T means EC50 is less than 2 nM; F means EC50 is at least 2 nM.

Examples with answers:
INSERT INTO measurements (compound, label_class) VALUES
  ('CC1(C)C(C(=O)c2cn(CCCCCF)c3ccccc23)C1(C)C [XLR‐11]', 'F'),
  ('CCCCCn1cc(C(=O)c2cccc3ccccc23)c2ccccc21 [JWH‐018]', 'F'),
  ('CCCCCn1cc(C(=O)Oc2cccc3cccnc23)c2ccccc21 [PB‐22]', 'F'),
  ('CC(C)[C@H](NC(=O)c1nn(Cc2ccc(F)cc2)c2ccccc12)C(N)=O [AB‐FUBINACA]', 'T');

Now consider a different compound.
# TODO verify EC50 < 2 nM strictly for this compound: COC(=O)[C@@H](NC(=O)c1cn(CCCCCF)c2ccccc12)C(C)(C)C [5F‐MDMB‐PICA]
T

----------
target: human CB1 receptor (Homo sapiens, UniProt P21554); construct: HA (hemagglutinin); expressed in transfected cells; host or cells: HEK 293 FlpIn cells with GIRK4 expression, stably transfected (pcDNA5/FRT + pOG44); type: cell-based
Below, each entry is listed alongside its reported G i (‐PTX) pEC50.

Worked cases, answers included:
INSERT INTO measurements (structure_smiles_string, assay_result) VALUES
  ('CC(C)[C@H](NC(=O)c1nn(Cc2ccc(F)cc2)c2ccccc12)C(N)=O', '9.0 ± 0.2 (0.96)'),
  ('CC1(C)C(C(=O)c2cn(CCCCCF)c3ccccc23)C1(C)C', '7.2 ± 0.2 (63)'),
  ('COC(=O)[C@@H](NC(=O)c1cn(CCCCCF)c2ccccc12)C(C)(C)C', '9.2 ± 0.2 (0.62)'),
  ('CCCCCn1cc(C(=O)Oc2cccc3cccnc23)c2ccccc21', '8.6 ± 0.2 (2.5)');

Check the records and state G i (‐PTX) pEC50 for `CCCCCn1cc(C(=O)c2cccc3ccccc23)c2ccccc21`
7.8 ± 0.2 (16)

----------
target: human CB1 receptor (Homo sapiens, UniProt P21554); construct: HA (hemagglutinin); expressed in transfected cells; host or cells: HEK 293 FlpIn cells with GIRK4 expression, stably transfected (pcDNA5/FRT + pOG44); type: cell-based; conditions: read-out: G s (+PTX) EC50 (converted)
Below, each entry is listed alongside its reported EC50.

Worked cases, answers included:
INSERT INTO measurements (molecule, assay_result) VALUES
  ('CC1(C)C(C(=O)c2cn(CCCCCF)c3ccccc23)C1(C)C [XLR‐11]', '4720 nM'),
  ('CCCCCn1cc(C(=O)Oc2cccc3cccnc23)c2ccccc21 [PB‐22]', '69 nM'),
  ('COC(=O)[C@@H](NC(=O)c1cn(CCCCCF)c2ccccc12)C(C)(C)C [5F‐MDMB‐PICA]', '85 nM');

Now look at this entry.
Check the records and state EC50 for CCCCCn1cc(C(=O)c2cccc3ccccc23)c2ccccc21 [JWH‐018]
288 nM

----------
biological target: human CB1 receptor (Homo sapiens); construct: HA (hemagglutinin); expressed in transfected cells; host or cells: HEK 293 FlpIn cells with GIRK4 expression, stably transfected (pcDNA5/FRT + pOG44); format: cell-based
Endpoint label: G i (−PTX) selectivity
Please respond with just the number, no unit label.

INSERT INTO measurements (structure_smiles_string, assay_result) VALUES
  ('CCCCCn1cc(C(=O)c2cccc3ccccc23)c2ccccc21', 18),
  ('CC1(C)C(C(=O)c2cn(CCCCCF)c3ccccc23)C1(C)C', 75),
  ('CCCCCn1cc(C(=O)Oc2cccc3cccnc23)c2ccccc21', 28);

Now look at this entry.
Answer with G i (−PTX) selectivity of `COC(=O)[C@@H](NC(=O)c1cn(CCCCCF)c2ccccc12)C(C)(C)C` measured for human CB1 receptor (Homo sapiens).
137

----------
Below, each entry is listed alongside its reported G s (+PTX) E max (% FSK).
target: human CB1 receptor (Homo sapiens); construct: HA (hemagglutinin); expressed in transfected cells; host or cells: HEK 293 FlpIn cells with GIRK4 expression, stably transfected (pcDNA5/FRT + pOG44); format: cell-based
Write the answer as a number in % FSK, unit excluded.

Worked cases, answers included:
INSERT INTO results (structure_smiles_string, assay_result) VALUES
  ('CCCCCn1cc(C(=O)c2cccc3ccccc23)c2ccccc21', 114),
  ('CC(C)[C@H](NC(=O)c1nn(Cc2ccc(F)cc2)c2ccccc12)C(N)=O', 144),
  ('CCCCCn1cc(C(=O)Oc2cccc3cccnc23)c2ccccc21', 130),
  ('CC1(C)C(C(=O)c2cn(CCCCCF)c3ccccc23)C1(C)C', 124);

Now look at this entry.
Answer with G s (+PTX) E max (% FSK) of `COC(=O)[C@@H](NC(=O)c1cn(CCCCCF)c2ccccc12)C(C)(C)C` measured for human CB1 receptor (Homo sapiens).
126
